Assay: NCI Yeast Anticancer Drug Screen. Data for the bub3 strain (AID 167)
Conditions: S. cerevisiae bub3 mutant strain, at 50.0 µM (retest, dose inferred, filed as 5.0), stronger effect = higher value
About 79,000 compounds went through this panel and 15% of them were active in at least one assay; those are over-represented in the sample as a whole.
recorded metric: growth inhibition (%)
Express the result in % but write the number alone.

O=P(c1ccccc1)(c1ccccc1)c1ccccc1.O=P(c1ccccc1)(c1ccccc1)c1ccccc1.S=C=[N][Sn]([N]=C=S)([N]=C=S)[c]1ccccc1    99
CC1CN1C1=C(Cl)C(=O)C(N2CC2C)=C(Cl)C1=O (centres undefined)    93
CCC[CH2][Sn]1([CH2]CCC)[O]C(c2ccccn2)S(=O)(=O)[O]1 (centres undefined)    1
Cc1cc[n+](C2=C(Nc3ccc(Cl)cc3Cl)C(=O)c3ccccc3C2=O)cc1    78
c1c(N2CCOCC2)ssc1=[N+]1CCOCC1    6
COC(=O)C(C)(C)[n+]1c(C)cc(C)cc1C    8

Ask: State the recorded growth inhibition for this entry: CCCCCCCC[N+](CCCC)(CCCC)CCCC (tested in a mixture with another compound)
Result: 99

###

Assay: NCI Yeast Anticancer Drug Screen. Data for the rad50 strain (AID 155);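 also: 0% = growth of vehicle-only cultures of the same strain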
Conditions: S. cerevisiae rad50 strain growth inhibition; at 50.0 µM (retest, dose inferred, filed as 5.0)
The panel holds about 79,000 compounds, 15% with a hit somewhere; the sample as a whole holds those more often. The source made the active and inactive calls. Cut-off read from the data, not from the text of the source: active = growth inhibition above about 70%; inactive = the rest.
Outcome field: choose from Yes for active, No for inactive

Worked cases, answers included:
CCOC(=O)C1CC12c1ccccc1-c1ccccc12 (configuration not stated)    No
O=S(=O)(c1ccccc1)N1C2C3CCC(CC3)C21 (configuration not stated)    No
O=C(O)CCCC1CCCCC1    No
CO[C@H](/C(C)=C/C=C/C(C)=C/c1coc(C)n1)[C@H](C)[C@H]1C[C@@H](O)[C@@]2(C)O[C@H]2/C=C/[C@@H](C)[C@@H]2C[C@@H](CC(=O)O2)C[C@H]2O[C@@H]2C(=O)O1    Yes
Cc1nc2ccccc2cc1C[N+]12CN3CN(CN(C3)C1)C2    No
COc1cc(/C=C/c2ccc(OC)c(OC)c2)cc(OC)c1    No
C=Cc1cc(OC)c2c(c1)c(=O)oc1c2cc(OC)c2c(O)ccc(C3OC(C)C(O)C(C)(O)C3O)c21 (configuration not stated)    Yes
CSc1nncc(=O)[nH]1.[Hg]    Yes
ClCCN(CCCl)CCN1c2ccccc2Sc2ccc3ccccc3c21    No
ClC1=NSSC1(Cl)Cl    Yes

Now consider a different compound.
Ask: Check the results log: what was the call for COc1cc(C(=O)CCN(CCCl)CCCl)cc(OC)c1OC ?
Result: No

###

Test: NCI Yeast Anticancer Drug Screen. Data for the mec2-1 strain (AID 157)
Conditions: S. cerevisiae mec2-1 strain, at 5.0 µM (retest, dose inferred, filed as 0.5), stronger effect = higher value
About 79,000 compounds went through this panel and 15% of them were active in at least one assay; those are over-represented in the sample as a whole.
Lab note: anything with growth inhibition at or over 10% counts as Condition met; the rest go in Condition not met.

Worked cases, answers included:
OC1(c2ccccc2)CC2CCC(C1)N2CCCC(O)(c1ccccc1)c1ccccc1 (configuration not stated)    Condition not met
CC1(C)OC2OC3C(CN(CCCl)Cc4ccccc4)OC(c4ccccc4)OC3C2O1 (configuration not stated)    Condition not met
NP(N)(=O)Nc1ccccc1    Condition not met
C=CCOc1cc2c(ccc1=O)-c1c(cc(OC)c(OC)c1OC)CCC2NC(C)=O (configuration not stated)    Condition not met
O=C1C=C(Cl)C(=O)C=C1Cl    Condition met

Ask: Quick check, growth inhibition >= 10%? S=P(Nc1ccccc1)(Nc1ccccc1)Nc1ccccc1
Result: Condition met

Ask: Quick check, growth inhibition >= 10%? CCCCCCC[CH2][Sn]([F])([F])[CH2]CCCCCCC
Result: Condition met

Ask: Quick check, growth inhibition >= 10%? O=c1oc2ccccc2c(O)c1C(c1ccc2c(c1)Cc1ccccc1-2)c1c(O)c2ccccc2oc1=O
Result: Condition met

Ask: Quick check, growth inhibition >= 10%? CCOP(=O)(OCC)/C(C#N)=C/c1cccc(Cl)c1
Result: Condition not met

Ask: Quick check, growth inhibition >= 10%? CCCCC(CC)CNP(=S)(NCC(CC)CCCC)NCC(CC)CCCC (configuration not stated)
Result: Condition not met

Ask: Quick check, growth inhibition >= 10%? C/C(=N\N)C(CN1CCCCC1)C(c1ccccc1)c1c(O)c2ccccc2oc1=O (configuration not stated)
Result: Condition not met

Ask: Quick check, growth inhibition >= 10%? C=CCN(CC=C)CC(C(C)=O)C(c1ccccc1)c1c(O)c2ccccc2oc1=O (configuration not stated)
Result: Condition met

Ask: Quick check, growth inhibition >= 10%? CC(=O)OC1C(=O)OCC23CCC4(C)OC4C2OC2CC(OC(=O)/C=C/C=C/C(=O)OCCC1C)C3(C)C21CO1 (configuration not stated)
Result: Condition met

Where these numbers come from: PubChem BioAssay (NCI)
